# Tested on: MS2 coat protein
# procedureDetails: apparent Kd, MS2 coat protein; higher = weaker binding; RNA-MaP array; FMN 200 µM where present
# runParameters: ligand present: flavin mononucleotide; designed as: OFF switch for flavin mononucleotide
Rule: apparent Kd under 20 nM gives Condition not met, otherwise Condition met.

Worked cases, answers included:
GGGCCCGGAGGAUAUACAUGAGGAUCACCCAUGUAGGGCCCGGGUAUUUUUGGGCCCUGUAGAAGGUUGGGCCC : Condition not met
AGCAUGCAGUAGGAUAUCGAUCCACAAUAUGAACGAGAAGGACUGACAUGAGGAUCACCCAUGUGCGUCCUAGG : Condition not met
GGAAAUCAUGUAGGAUAUGCAUGGCGAAGCUACGCAGAAGGACAUGAGGAUCACCCAUGUUAUAGCGUCCGAGAAGGGAUGCAA : Condition met

Query :: Has "UUCAGCUCGUGAGGAUAUACAUGUGCUGGAAACAGCACUAUUAAGAUCACAUGAGGAUCACCCAUGUAGAAGGCACGAGCUGAG" a recorded apparent Kd greater than or equal to 20 nM?
Result :: Condition met

Query :: Thanks! And "GUGUACAGAGGAUAUACUUGAAUCUAGCGAAGCUAGGUUCGACAUGAGGAUCACCCAUGUAGAAGGCUGUACAC" ?
Result :: Condition not met

Query :: And the next one, "AAAACGUGAGGAUAUGCACCAACCAAGGUUUUUCGGGUACGACAUGAGGAUCACCCAUGUAGAAGGCACGCAAA" ?
Result :: Condition met

Query :: Same question for "GAGGAUAGAGGAUAUGCAUAGAUACGGAUUCGUGUAGUACUACAUGAGGAUCACCCAUGUAGAAGGCUGUCCUG" please.
Result :: Condition met

Query :: Also "GUUAGCGCAGGAUAUACAUGAGGAUCACCCAUGUCCUCAUGCGUUAAAGAGGUGAUCCGUAGAAGGGUGUAAAC" ?
Result :: Condition met

---

# Tested on: MS2 coat protein
# procedureDetails: apparent Kd, MS2 coat protein; higher = weaker binding; RNA-MaP array; FMN 200 µM where present
# runParameters: designed as: ON switch for flavin mononucleotide; no ligand
The following sequences are listed with their measured apparent Kd values.
Report only the number, with the unit nM understood.

Please review the entries below; each comes with its answer.
GUAGCUAUCGGAGGAUAUUCAUACCGGAAACGGACAUGAGGAUCACCCAUGUGCGGAAACGCUUGGGAGAAGGCCGAUAGCUAC : 247
GGGAACAUCGGAGGAUAUCAUGUAAAUACAUGAGGAUCACCCAUGUCGAUGGAGACAUCGGAGAUUGAGAAGGCCGAUGUACCG : 173

Next:
Query :: Request the reported apparent Kd associated with "UUUAUAAAUUAGAAGGCAUGAUGAAUUACAAUAGACAUGAGGAUCACCCAUGUGUGUUCAUGUCAUGAGGAUAUAGUCAUAUAU"
Result :: 17.5

---

# Tested on: MS2 coat protein
# procedureDetails: apparent Kd, MS2 coat protein; higher = weaker binding; RNA-MaP array; FMN 200 µM where present
# runParameters: ligand present: flavin mononucleotide; designed as: OFF switch for flavin mononucleotide
Think of 50 nM as a floor: if apparent Kd stands on it or above, it is 1; beneath it, 0.

CCAUCAGCGAACGUAUCGGUUGGACAUGAGGAUCACCCAUGUAGAAGGACAGGAGUAUUACGGCUGUAGGAUAUACAUUUAGUG : 0

Query :: Decide: is the reported value of apparent Kd for "GUUUACGUGGAAGGAUAUACAUUUGACAUCCUGAUGCGCGCAAUACCCACAUGAGGAUCACCCAUGUAGAAGGUCUGCGAAAGA" equal to or greater than 50 nM?
Result :: 0

Query :: Moving on to "AAAAAGGUAGGAUAUACGAAAAAAAAGGGUAAAAUAAAUAAACAUGAGGAUCACCCAUGUAGAAGGACCAAAAA"
Result :: 1

Query :: Another sequence to check: "AAGAAAGUAUUGCGAGGGUAGGAGCAGGAUAUCCCAUUGGCCCUCACAUGAGGAUCACCCAUGUGGGAGAAGGGCUAUUACGUU"
Result :: 0

Query :: What do you get for "AAGUGUAUAGGAUAUGCGUGGAAAAGGUGUAUUCACUAGCGACAUGAGGAUCACCCAUGUAGAAGGGUAUGUAA" ?
Result :: 1

Query :: Queued: "CCCUCAACAUGAGGAUCACCCAUGUAGGAUAUCGCUAUUGUAAUCAUGAAACAUGAUUACAAUAGCGAGAAGGACAUAUGACCC"
Result :: 1

---

# System: MS2 coat protein
# procedureDetails: apparent Kd, MS2 coat protein; higher = weaker binding; RNA-MaP array
# runParameters: ligand present: flavin mononucleotide; designed as: OFF switch for flavin mononucleotide
property: apparent Kd (µM)
Reply with just the number (in µM).

# example entries with known answers
CCAGCGAGUUAGACCUUACAUGAGGAUCACCCAUGUUGGCGUAGAAGGACGCUCAUAAGCACUGCGUAGGAUAUACUCACCAAU : 0.0104
GAGCUAUCAGGAUAUACAUGAGGAUCACCCAUGUUUUUUGGAAUCAAGAGGAAUCAAUGUAGAAGGGAUCUCGA : 0.0282
AUGAACAACCAGAAGGCAACGUUGGCCCAAGUUUGAGGAUAUGGACGUGGAAGUUCGCACAUGAGGAUCACCCAUGUAGAUCAG : 0.0128
CUCCCAAACAAGAAGGGCGUCGAGUACGGUGAACUUGCCACAUAACAUGAGGAUCACCCAUGUACGCAGGAUAUUGGAGCGUUU : 0.234

Query :: So what's the measured apparent Kd for this one? "AGCGUGUAAGGAUAUCCAAUUGAUGGGAGCGGAUCUUCCCAGGAGAAGGUACAUGAGGAUCACCCAUGUGGCGC"
Result :: 0.035

Query :: And "AUAAACCUAACAUGAGGAUCACCCAUGUCCUCCGUCGGUCGAAGAAGGAGUAAUGCUUAUUUUUACUAGGAUAUUCGUAAUCAC" ?
Result :: 0.216

Query :: Same for "GCCAUGUAAGGAUAUCUUAACUUGCAUCACGCGCGGAAUGGAGAGAAGGUACAUGAGGAUCACCCAUGUGAAAA"
Result :: 0.028

---

# Tested on: MS2 coat protein
# procedureDetails: apparent Kd, MS2 coat protein; higher = weaker binding; RNA-MaP array; FMN 200 µM where present
# runParameters: designed as: ON switch for flavin mononucleotide; no ligand
// values below are reported apparent Kd
Write the answer as a number in nM, unit excluded.

For orientation, consider the following solved cases.
AAAAAACAUGAGGAUCACCCAUGUCCUCGGACGUGAGGAUAUGUACAGACUUCGGUCUGUACAGAAGGCACGUCAA : 512
UUAUUUAUACAAGGAUAUCUAUUAUAUUCACAUCCUACAUGAGGAUCACCCAUGUUAUAUAUUUUAGAGAAGGUGUAUUGUCUG : 27.2
UUUAGUUGCGGGCAGGAUAUGUAUUAAAAUACAUGAGGAUCACCCAUGUGUGGGUAUAACACCCAACAGAAGGGCCAAUCGCGAC : 132

Query :: Quick one: apparent Kd of "GUGGUCAGACAUGAGGAUCACCCAUGUGGAAUAAAUAAGGAGAAGGAUAUGCAAUAUAGGAUAUAGCAGAAGGUCUGGUUGGUG" ?
Result :: 80.1

Query :: Further, for "CAUUCAAGCCAGAAGGAGUACACUACAUGAGGAUCACCCAUGUCUAAUACUAGGAUAUGGGCAUCUGGUAAUGUCUAAGGUGCG" ?
Result :: 111

Query :: What do you get for "GCUAUCGGGUGAGGAUAUAUAAUUGUGAUUAAAAUAGAAGGCAUCUCAGAAGACAUGAGGAUCACCCAUGUAGUUAAGAUGGCA" ?
Result :: 23.8

Query :: Now consider "UUGGACGUCGUAGGAUAUGUAGGAUAUUCCUACAUGAGGAUCACCCAUGUUGACAUGGAAGAGGGACAGAAGGACGAUGUCCAU" .
Result :: 606

---

# Test system: MS2 coat protein
# procedureDetails: apparent Kd, MS2 coat protein; higher = weaker binding; RNA-MaP array; FMN 200 µM where present
# runParameters: ligand present: flavin mononucleotide; designed as: OFF switch for flavin mononucleotide
Each entry below lists one item and its recorded apparent Kd value.
Just the number please, in nM, no unit attached.

Please review the entries below; each comes with its answer.
UCCUUGUCCUGAGGAUAUCCGUGGUGACCGAAAGGAGAAGGCAGGACAUGAGGAUCACCCAUGUACCCAGAAAACGUGCAGAGA : 232
CUUAUGCGGCAGGAUAUCGUGCUUUUCGAGCAGCGAGAAGGGUCUACAUGAGGAUCACCCAUGUCAGUGGCUCU : 37.8

With those in mind, consider the next sequence.
Query :: Could you tell me which apparent Kd is on file for "UUCAGCUCGUGAGGAUAUACAUGUGCUGGAAACAGCACUAUUAAGUUCACAUGAGGAUCACCCAUGUAGAAGGCACGAGCUGAG" ?
Result :: 19.3
